Reference source: patent US20240116962A1

- STUDY TARGET: hTLR8 (Homo sapiens, UniProt Q9NR97)
- Construct: host or cells: HEK-Blue hTLR8 (HEK293-derived reporter cells with SEAP read-out)
- Sequence (Q9NR97 27-1041): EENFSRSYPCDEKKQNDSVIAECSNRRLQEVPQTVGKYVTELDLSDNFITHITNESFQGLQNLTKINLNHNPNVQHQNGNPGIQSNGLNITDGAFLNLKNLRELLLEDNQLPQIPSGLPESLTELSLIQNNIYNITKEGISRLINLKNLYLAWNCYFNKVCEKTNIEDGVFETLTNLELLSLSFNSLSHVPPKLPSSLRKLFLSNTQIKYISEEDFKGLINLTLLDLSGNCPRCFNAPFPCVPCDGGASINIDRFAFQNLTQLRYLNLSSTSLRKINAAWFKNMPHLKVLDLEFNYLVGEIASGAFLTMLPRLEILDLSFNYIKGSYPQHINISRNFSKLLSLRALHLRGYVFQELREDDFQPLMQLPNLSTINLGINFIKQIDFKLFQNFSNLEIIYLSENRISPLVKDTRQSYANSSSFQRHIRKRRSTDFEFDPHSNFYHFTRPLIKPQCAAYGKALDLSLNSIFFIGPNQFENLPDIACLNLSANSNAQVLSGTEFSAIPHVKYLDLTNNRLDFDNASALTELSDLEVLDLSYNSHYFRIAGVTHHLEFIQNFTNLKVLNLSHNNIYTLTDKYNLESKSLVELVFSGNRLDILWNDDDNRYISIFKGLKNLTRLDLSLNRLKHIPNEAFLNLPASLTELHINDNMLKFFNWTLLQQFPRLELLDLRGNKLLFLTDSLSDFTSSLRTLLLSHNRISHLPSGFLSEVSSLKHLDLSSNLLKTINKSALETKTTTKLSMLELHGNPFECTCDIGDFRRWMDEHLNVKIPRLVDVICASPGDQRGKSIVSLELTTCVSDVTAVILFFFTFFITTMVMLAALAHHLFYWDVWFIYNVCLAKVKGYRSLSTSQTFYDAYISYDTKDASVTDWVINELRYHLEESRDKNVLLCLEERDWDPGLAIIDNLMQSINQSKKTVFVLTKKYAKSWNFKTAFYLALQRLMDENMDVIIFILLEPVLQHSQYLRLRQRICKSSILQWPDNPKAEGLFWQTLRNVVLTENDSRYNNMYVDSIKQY
- TEST PROTOCOL: EC50 assay for small molecule agonists, HEK-Blue hTLR8 cells, SEAP readout
- Format: cell-based
- CONDITIONS: agonist activity, read-out: hTLR8(EC50)
- Method: Reagents used for cell culture and detection for HEK-Blue™ hTLR7, HEK-Blue™ hTLR8 and control HEK-Blue Nu112k were as follows: DMEM (4.5 g/L glucose), bovine serum FBS, streptomycin ([…]), penicillin (50 U/mL), Blasticidin (10 mg/mL), Zeocin™ (10 mg/mL), Normocin (50 mg/mL), and HEK-Blue™ Detection. […]
PROPERTY NAME: log10(EC50) (log10 of the value in µM)
Hi team, quick reminder: these entries are log10 of EC50 (µM).

Which log10(EC50) value is on record for CCCCCc1cc(Cc2ccc(CN3CCN(C)CC3)cc2OC)c(C)nc1N ?
-0.78

Which log10(EC50) value is on record for CCCCCc1cc(Cc2ccc(CN3CCCC3)cc2OC)c(C)nc1N ?
-0.99

Which log10(EC50) value is on record for CCCCCc1cc(Cc2ccc(CN3CCOCC3)cc2)c(C)nc1N ?
-0.37

Which log10(EC50) value is on record for CCCCCc1cc(Cc2ccc(CN(C)C)cc2)cnc1N ?
-0.61

Which log10(EC50) value is on record for CCCCCc1cc(Cc2ccc(CN3CC4(COC4)C3)cc2F)c(C)nc1N ?
-0.95

Which log10(EC50) value is on record for CCCCCc1cc(Cc2ccc(CN3CCOCC3)cc2OC)c(C)nc1N ?
0.05

Which log10(EC50) value is on record for CCCCCc1cc(Cc2ccc(CN3CCNCC3)cc2)c(C)nc1N ?
-0.87

Which log10(EC50) value is on record for CCCCCc1cc(Cc2cccc(CN(C)C)c2)c(C)nc1N ?
-0.54

Which log10(EC50) value is on record for CCCCCc1cc(Cc2ccc(CN3CCCC3)cc2)c(C)nc1N ?
-1.20

Which log10(EC50) value is on record for CCCCCc1cc(Cc2ccc(CN(C)CCC(=O)OC)cc2)c(C)nc1N ?
-0.20

Which log10(EC50) value is on record for CCCCCc1cc(Cc2ccc(CN3CCN(C)CC3)cc2OC(C)=O)c(C)nc1N ?
-0.56

Which log10(EC50) value is on record for CCCCCc1cc(Cc2ccc(CN3CCCCCC3)cc2)c(C)nc1N ?
-0.96

Which log10(EC50) value is on record for CCCCCc1cc(Cc2ccc(CN3CCCC3)cc2O)c(C)nc1N ?
-0.33

Which log10(EC50) value is on record for CCCCCc1cc(Cc2ccc(CN3CCN(C)CC3)cc2O)c(C)nc1N ?
-0.20

Which log10(EC50) value is on record for CCCCCc1cc(Cc2ccc(CN3CCN(C)CC3)cc2)c(C)nc1N ?
-0.82
